Cited source for all entries: patent US20260042834A1

# tested_on: T1, CRH (CT Biotin) (human and mouse, C-terminal K-Biotin)
# T1 construct: also called Peptide 4 (CRH-Biotin)
# T1 peptide: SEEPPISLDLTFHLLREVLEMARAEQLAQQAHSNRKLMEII
# experiment_notes: ELISA, biotin peptide on streptavidin plate
test_readout: pEC50
FYI, pEC50 means -log10 of a concentration in mol per litre.

For orientation, consider the following solved cases.
binder	recorded_measurement
PR302341-34 (antibody, human IgG1, kappa, V domains shown, Humanized, PTM-removed variant of PR302341) VH: QVQLVQSGAEVKKPGASVKVSCKASGYTFTDYFMKWVRQAPGQGLEWMGVINPNQGDIFYNQKFKGRVTMTVDKSISTAYMELSRLRSDDTAVYYCARGTDRALFAYWGQGTLVTVSS VL: DVVMTQSPLSLPVTLGQPASISCRSGQSIVHSDANTYLEWYQQRPGQSPRLLIYKVSNRFSGVPDRFSGSGSGTDFTLKISRVEAEDLGVYYCFQGSHIPWTFGGGTKVEIKR	10.57
PR302334-26 (antibody, human IgG1, kappa, V domains shown, Humanized variant of PR302334) VH: EVQLVESGGGLVQPGGSLRLSCAASGFTFSTYAMSWVRQAPGKGLEWVASIRSGGTTYYPDSVKGRFTISRDNSKNSLYLQMNSLRAEDTAVYYCTRGIDWGQGTTVTVSS VL: DIVMTQSPDSLAVSLGERATINCKASQSVNNDVAWYQQKPGQPPRLLIYYASNRYTGVPDRFSGSGSGTDFTLTISSLQAEDLAVYFCQQDYSSWTFGGGTKVEIKR	10.55
PR005660 (antibody, human IgG1, kappa, V domains shown, PTM-removal variant of PR004290) VH: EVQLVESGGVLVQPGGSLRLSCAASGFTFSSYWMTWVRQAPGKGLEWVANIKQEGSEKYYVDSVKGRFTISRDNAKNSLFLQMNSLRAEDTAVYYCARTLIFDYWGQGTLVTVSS VL: DIVMTQSPLSLPVTPGEPASISCRSSQSLLHSTGYQSLEWYLQKPGQSPQLLIYLGSNRASGVPDRFSGSGSGTDFTLKISRVEAEDVGIYYCMQTLQTPITFGQGTRLEIKR	10.27

Now, please, on to the next binder.
GET /values?readout=pEC50&item= PR302341-28 (antibody, human IgG1, kappa, V domains shown, Humanized, PTM-removed variant of PR302341) VH: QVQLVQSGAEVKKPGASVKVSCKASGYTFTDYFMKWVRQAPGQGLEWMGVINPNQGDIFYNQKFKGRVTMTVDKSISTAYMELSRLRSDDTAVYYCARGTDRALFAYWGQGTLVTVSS VL: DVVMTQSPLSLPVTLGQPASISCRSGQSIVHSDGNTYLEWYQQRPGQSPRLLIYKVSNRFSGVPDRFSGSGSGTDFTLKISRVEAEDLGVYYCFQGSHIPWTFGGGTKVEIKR 10.43
